RESULT_TYPE: melting point

Below, each entry is followed by its recorded melting point result.
> print(dat)
                                   molecule  value.measured
1  Cl.Cl.N=C(N)c1ccc(-c2[nH]c3cc(C(=N)N)ccc3c2CC(=O)OCCCCCO)cc1        > 250 °C
2  COC(=O)C=Cc1ccc(Cc2c(-c3ccc(C(=N)N)cc3)[nH]c3cc(C(=N)N)ccc23)cc1.Cl.Cl        > 250 °C
3  COC(=O)C(CCCNC(=O)OCc1ccccc1)NC(=O)Cc1c(-c2ccc(C(=N)N)cc2)[nH]c2cc(C(=N)N)ccc12.Cl.Cl (stereo not shown)   230 to 235 °C

Look up melting point for this molecule: Cl.Cl.N=C(N)c1ccc(-c2[nH]c3cc(C(=N)N)ccc3c2CC(O)CO)cc1 (stereo not shown)
> 250 °C

====

RESULT_TYPE: melting point

Some entries whose results are on file:
> print(dat)
                                   compound    result.type  value.measured
1  CCCOC(=O)Cc1c(-c2ccc(C(=N)N)cc2)[nH]c2cc(C(=N)N)ccc12.Cl.Cl  melting point        > 270 °C
2  Cl.Cl.N#CCCOC(=O)Cc1c(-c2ccc(C(=N)N)cc2)[nH]c2cc(C(=N)N)ccc12  melting point        > 250 °C
3  CCOC(=O)CC(C)OC(=O)Cc1c(-c2ccc(C(=N)N)cc2)[nH]c2cc(C(=N)N)ccc12.Cl.Cl (stereo not shown)  melting point        > 250 °C
4  Cl.Cl.N=C(N)c1ccc(-c2[nH]c3cc(C(=N)N)ccc3c2CCNCC(=O)O)cc1  melting point        > 250 °C
5  COc1cc(C(=N)N)ccc1-c1cc2ccc(C(=N)N)cc2[nH]1.Cl.Cl  melting point        > 250 °C

Which value of melting point has been reported for `Cl.Cl.N=C(N)c1ccc(-c2[nH]c3cc(C(=N)N)ccc3c2Cc2cccc(OCC(N)=O)c2)cc1` in the records?
> 250 °C

Fill in the blank: the reported melting point of `COC(=O)c1cccc(Cc2c(-c3ccc(C(=N)N)cc3)[nH]c3cc(C(=N)N)ccc23)c1.Cl.Cl` is ____.
> 250 °C

====

RESULT_TYPE: melting point

> print(dat)
                                   compound  value.measured
1  Cl.Cl.N=C(N)c1ccc(-c2[nH]c3cc(C(=N)N)ccc3c2CC(=O)OCCc2cccs2)cc1        > 250 °C
2  COC(=O)C(CCCN)NC(=O)Cc1c(-c2ccc(C(=N)N)cc2)[nH]c2cc(C(=N)N)ccc12.Cl.Cl (stereo not drawn)        > 250 °C
3  COC(=O)CCNCCc1c(-c2ccc(C(=N)N)cc2)[nH]c2cc(C(=N)N)ccc12.Cl.Cl        > 250 °C
4  Cl.Cl.N=C(N)c1ccc(-c2cc3ccc(C(=N)N)cc3[nH]2)c(OCC(O)CO)c1 (stereo not drawn)        > 320 °C
5  COC(=O)Cc1c(-c2ccc(C(=N)N)cc2O)[nH]c2cc(C(=N)N)ccc12.Cl.Cl        > 250 °C
6  Cl.Cl.N=C(N)c1ccc(-c2cc3ccc(C(=N)N)cc3[nH]2)c(O)c1        > 300 °C
7  COC(=O)C(Cc1ccccc1)NCCc1c(-c2ccc(C(=N)N)cc2)[nH]c2cc(C(=N)N)ccc12.Cl.Cl (stereo not drawn)        > 250 °C
8  COCCOC(=O)Cc1c(-c2ccc(C(=N)N)cc2)[nH]c2cc(C(=N)N)ccc12.Cl.Cl        > 250 °C

Query (compound): Cl.Cl.N=C(N)c1ccc(-c2[nH]c3cc(C(=N)N)ccc3c2CC(=O)OCC(O)CO)cc1 (stereo not drawn) ; field requested: melting point
> 250 °C

// returns reported melting point for input `CNC(=N)c1ccc(-c2cc3ccc(C(=N)NC)cc3[nH]2)cc1.Cl.Cl`
282 °C

What measured melting point goes with `COC(=O)CNCCc1c(-c2ccc(C(=N)N)cc2)[nH]c2cc(C(=N)N)ccc12.Cl.Cl` ?
> 250 °C

Can you share its melting point? I mean this compound: COC(=O)CC(NCCc1c(-c2ccc(C(=N)N)cc2)[nH]c2cc(C(=N)N)ccc12)C(=O)OC.Cl.Cl (stereo not drawn)
> 250 °C

Which melting point value belongs to `CCOC(=O)Cc1c(-c2ccc(C3=NCCN3)cc2)[nH]c2cc(C3=NCCN3)ccc12.Cl.Cl` ?
> 300 °C
